The next entries give measured pKi for MMP-9 (Homo sapiens, UniProt P14780).
pKi: −log10 of the molar value. Counter-ions that a name gives are not always drawn.

# example entries with known answers
• NC[C@H]1O[C@H](O[C@H]2[C@H](O)[C@@H](O)[C@H](N)C[C@@H]2N)[C@H](N)[C@@H](O)[C@@H]1O [Neamine (free base), Neamine] = < 3.52
• N=C(N)NC[C@@H]1O[C@H](O[C@H]2[C@@H](O)[C@H](O[C@@H]3[C@@H](O)[C@H](NC(=N)N)C[C@H](NC(=N)N)[C@H]3O[C@H]3O[C@H](CNC(=N)N)[C@@H](O)[C@H](O)[C@H]3NC(=N)N)O[C@@H]2CO)[C@H](NC(=N)N)[C@@H](O)[C@@H]1O = < 3.77
• CN[C@@H]1[C@@H](O)[C@@H](O[C@@H]2[C@@H](O)[C@H](O[C@H]3OC(CN)=CC[C@H]3N)[C@@H](N)C[C@H]2N)OC[C@]1(C)O [Sisomicin Sulfate] = < 3.52
• NCC[C@H](O)C(=O)N[C@@H]1C[C@H](N)[C@@H](O[C@H]2O[C@H](CN)[C@@H](O)[C@H](O)[C@H]2O)[C@H](O)[C@H]1O[C@H]1O[C@H](CO)[C@@H](O)[C@H](N)[C@H]1O = < 3.52

Okay, next one:
Look up and report pKi, with MMP-9 (Homo sapiens, UniProt P14780) as system, for "NCCCCN"
Sequence (P14780 94-707, species assumed): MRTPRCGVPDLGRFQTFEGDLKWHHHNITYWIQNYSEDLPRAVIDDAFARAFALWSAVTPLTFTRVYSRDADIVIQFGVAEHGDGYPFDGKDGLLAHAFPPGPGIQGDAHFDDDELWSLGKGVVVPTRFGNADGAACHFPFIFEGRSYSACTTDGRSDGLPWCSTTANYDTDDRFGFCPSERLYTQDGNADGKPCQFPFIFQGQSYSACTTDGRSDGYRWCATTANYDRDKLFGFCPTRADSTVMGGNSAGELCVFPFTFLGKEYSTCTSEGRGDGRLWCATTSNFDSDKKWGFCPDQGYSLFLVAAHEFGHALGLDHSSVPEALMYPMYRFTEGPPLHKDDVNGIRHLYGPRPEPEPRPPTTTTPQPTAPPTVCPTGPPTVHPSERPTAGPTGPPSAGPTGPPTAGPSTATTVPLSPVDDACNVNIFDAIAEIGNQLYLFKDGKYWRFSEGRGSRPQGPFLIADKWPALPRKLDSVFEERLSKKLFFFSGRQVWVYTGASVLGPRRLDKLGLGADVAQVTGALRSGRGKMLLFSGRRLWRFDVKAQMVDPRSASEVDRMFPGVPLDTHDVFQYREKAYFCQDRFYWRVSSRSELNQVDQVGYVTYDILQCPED
< 3.52

---

Target: cathepsin B (Homo sapiens)
Where a name gives a salt, the structure may show the parent alone.
reportedProperty: IC50

Supply IC50 value. Item: NCCCNCCCCNCCCN [Spermine, diphosphate salt]
> 500 µM

---

Biological target: UniProt:P07477
Counter-ions that a name gives are not always drawn.
reportedProperty: IC50

Supply IC50 value. Item: NCCCNCCCCNCCCN [Spermine, diphosphate salt]
> 500 µM

---

Biological target: UniProt:P14780
Where a name gives a salt, the structure may show the parent alone.
# Ki values compiled below

# example entries with known answers
- NC[C@@H]1O[C@H](O[C@H]2[C@@H](O)[C@H](O[C@@H]3[C@@H](O)[C@H](N)C[C@H](N)[C@H]3O[C@H]3O[C@H](CN)[C@@H](O)[C@H](O)[C@H]3N)O[C@@H]2CO)[C@H](N)[C@@H](O)[C@@H]1O [Neomycin B tris-sulfate]: > 300 µM
- NCCCNCCCCNCCCN [Spermine, diphosphate salt]: > 300 µM

Okay, next one:
Look up and report Ki, with UniProt:P14780 as system, for CN[C@@H]1[C@@H](O[C@H]2O[C@H](CO)[C@@H](N)[C@H](O)[C@H]2O)OC2C[C@@H](N)[C@@H](O[C@H]3[C@H](O)[C@@H](O)[C@H](N)C[C@@H]3N)OC2[C@@H]1O (stereo partly drawn) [Apramycin]
> 300 µM

---

Target: botulinum neurotoxin/A (BoNT/A) (Clostridium botulinum, UniProt P0DPI1)
Sequence (P0DPI1 whole entry, looked up): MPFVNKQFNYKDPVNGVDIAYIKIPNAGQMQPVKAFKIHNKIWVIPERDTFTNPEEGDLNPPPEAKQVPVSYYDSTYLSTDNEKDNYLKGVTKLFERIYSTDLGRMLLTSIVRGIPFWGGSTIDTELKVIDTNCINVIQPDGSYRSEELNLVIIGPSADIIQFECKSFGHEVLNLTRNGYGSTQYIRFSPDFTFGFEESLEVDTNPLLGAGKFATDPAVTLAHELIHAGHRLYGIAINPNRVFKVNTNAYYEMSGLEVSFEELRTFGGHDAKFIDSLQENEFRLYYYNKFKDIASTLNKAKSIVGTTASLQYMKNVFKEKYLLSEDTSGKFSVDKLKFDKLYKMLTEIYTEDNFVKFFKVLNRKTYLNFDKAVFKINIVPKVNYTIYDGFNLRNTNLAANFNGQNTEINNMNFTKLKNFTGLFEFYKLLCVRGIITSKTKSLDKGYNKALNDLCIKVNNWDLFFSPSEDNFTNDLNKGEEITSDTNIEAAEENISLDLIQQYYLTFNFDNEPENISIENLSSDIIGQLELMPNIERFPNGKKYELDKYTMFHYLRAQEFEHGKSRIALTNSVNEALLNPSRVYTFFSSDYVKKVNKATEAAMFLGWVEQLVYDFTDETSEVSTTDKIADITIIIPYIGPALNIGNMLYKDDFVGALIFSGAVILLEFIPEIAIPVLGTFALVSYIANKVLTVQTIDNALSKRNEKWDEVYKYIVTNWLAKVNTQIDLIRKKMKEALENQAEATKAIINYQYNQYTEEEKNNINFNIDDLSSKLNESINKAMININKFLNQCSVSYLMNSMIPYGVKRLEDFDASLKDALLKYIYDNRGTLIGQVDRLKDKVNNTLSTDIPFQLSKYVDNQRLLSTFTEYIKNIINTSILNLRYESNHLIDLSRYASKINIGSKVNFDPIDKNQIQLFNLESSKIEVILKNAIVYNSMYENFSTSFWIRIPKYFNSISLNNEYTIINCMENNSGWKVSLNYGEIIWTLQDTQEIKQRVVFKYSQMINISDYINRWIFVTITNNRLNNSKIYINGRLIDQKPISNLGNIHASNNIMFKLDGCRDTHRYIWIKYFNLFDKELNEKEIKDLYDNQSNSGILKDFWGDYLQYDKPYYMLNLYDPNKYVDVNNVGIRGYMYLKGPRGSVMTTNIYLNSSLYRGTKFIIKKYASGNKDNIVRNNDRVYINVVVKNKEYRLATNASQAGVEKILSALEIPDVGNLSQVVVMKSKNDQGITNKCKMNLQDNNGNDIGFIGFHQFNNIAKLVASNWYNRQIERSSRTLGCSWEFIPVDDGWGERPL
Test: biochemical
reportedProperty: IC50 (µM)
Respond numerically; units are µM and should not be typed.

- NCCCCNCCCN [Spermidine]: 76

Okay, next one:
Supply IC50 value. Item: "N=C(N)NC[C@@H]1O[C@H](O[C@H]2[C@@H](O)[C@H](O[C@@H]3[C@@H](O)[C@H](NC(=N)N)C[C@H](NC(=N)N)[C@H]3O[C@H]3O[C@H](CNC(=N)N)[C@@H](O)[C@H](O)[C@H]3NC(=N)N)O[C@@H]2CO)[C@H](NC(=N)N)[C@@H](O)[C@@H]1O"
14

---

The next entries give measured Ki for UniProtKB P15917.
Sequence (P15917 34-809 limits assumed): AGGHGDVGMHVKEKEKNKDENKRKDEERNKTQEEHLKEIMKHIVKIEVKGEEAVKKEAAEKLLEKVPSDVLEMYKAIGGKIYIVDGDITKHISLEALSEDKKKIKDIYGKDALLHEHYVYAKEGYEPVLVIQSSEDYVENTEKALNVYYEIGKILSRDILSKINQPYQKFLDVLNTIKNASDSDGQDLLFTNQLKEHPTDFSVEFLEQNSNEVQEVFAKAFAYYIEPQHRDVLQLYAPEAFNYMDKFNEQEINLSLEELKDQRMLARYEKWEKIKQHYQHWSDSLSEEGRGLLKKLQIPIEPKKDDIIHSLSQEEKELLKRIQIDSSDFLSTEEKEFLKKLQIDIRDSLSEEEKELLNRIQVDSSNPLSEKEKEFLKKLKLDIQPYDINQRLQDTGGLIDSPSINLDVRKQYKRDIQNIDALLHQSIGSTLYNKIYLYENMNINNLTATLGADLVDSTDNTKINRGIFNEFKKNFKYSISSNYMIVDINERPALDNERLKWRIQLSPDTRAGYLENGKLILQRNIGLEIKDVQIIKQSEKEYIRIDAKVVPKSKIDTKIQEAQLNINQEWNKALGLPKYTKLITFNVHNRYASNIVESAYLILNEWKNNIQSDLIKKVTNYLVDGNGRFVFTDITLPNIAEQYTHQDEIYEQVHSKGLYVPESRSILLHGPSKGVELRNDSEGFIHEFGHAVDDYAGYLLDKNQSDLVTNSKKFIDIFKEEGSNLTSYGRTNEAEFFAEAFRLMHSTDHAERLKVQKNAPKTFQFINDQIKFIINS
Respond numerically; units are nM and should not be typed.

- N=C(N)NCCC[C@@H](N)C(=O)N[C@H](CCCNC(=N)N)C(=O)N[C@H](CCCNC(=N)N)C(=O)N[C@H](CCCNC(=N)N)C(=O)N[C@H](CCCNC(=N)N)C(=O)N[C@H](CCCNC(=N)N)C(N)=O: 40

Supply Ki value. Item: "CC(=O)N[C@@H](CCCNC(=N)N)C(=O)N[C@@H](CCCNC(=N)N)C(=O)N[C@@H](CCCNC(=N)N)C(=O)N[C@@H](CCCNC(=N)N)C(=O)N[C@@H](CCCNC(=N)N)C(=O)N[C@@H](CCCNC(=N)N)C(N)=O"
120

Supply Ki value. Item: "NCC[C@H](O)C(=O)N[C@@H]1C[C@H](N)[C@@H](O[C@H]2O[C@H](CN)[C@@H](O)[C@H](O)[C@H]2O)[C@H](O)[C@H]1O[C@H]1O[C@H](CO)[C@@H](O)[C@H](N)[C@H]1O"
23300

Supply Ki value. Item: "CC(=O)N[C@@H](CCCNC(=N)N)C(=O)N[C@@H](CCCNC(=N)N)C(=O)N[C@@H](CCCNC(=N)N)C(=O)N[C@@H](CCCNC(=N)N)C(=O)N[C@@H](CCCNC(=N)N)C(=O)N[C@@H](CCCNC(=N)N)C(=O)O"
290

---

The next entries give measured Ki for UniProt:P09958.
Sequence (P09958 108-794): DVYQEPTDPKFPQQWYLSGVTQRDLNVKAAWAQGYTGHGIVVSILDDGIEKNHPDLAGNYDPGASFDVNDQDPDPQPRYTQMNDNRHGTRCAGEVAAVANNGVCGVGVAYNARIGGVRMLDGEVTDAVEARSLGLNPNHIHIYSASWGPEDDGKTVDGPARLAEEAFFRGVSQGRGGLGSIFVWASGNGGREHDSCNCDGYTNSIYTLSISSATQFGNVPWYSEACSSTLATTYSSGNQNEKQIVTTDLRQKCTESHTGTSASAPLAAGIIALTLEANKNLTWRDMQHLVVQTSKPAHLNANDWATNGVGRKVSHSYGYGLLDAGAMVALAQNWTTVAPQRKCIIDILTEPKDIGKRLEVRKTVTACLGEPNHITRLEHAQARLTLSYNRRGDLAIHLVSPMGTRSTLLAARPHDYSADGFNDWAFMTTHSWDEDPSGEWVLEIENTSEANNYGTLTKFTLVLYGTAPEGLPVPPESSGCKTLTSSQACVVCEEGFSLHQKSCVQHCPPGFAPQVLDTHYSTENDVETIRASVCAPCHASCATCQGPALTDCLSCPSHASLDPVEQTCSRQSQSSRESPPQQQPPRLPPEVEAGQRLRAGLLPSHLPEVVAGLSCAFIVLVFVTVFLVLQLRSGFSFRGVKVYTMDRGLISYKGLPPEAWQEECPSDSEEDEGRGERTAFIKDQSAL
Respond numerically; units are µM and should not be typed.

# example entries with known answers
• N=C(N)NC[C@@H]1O[C@H](O[C@H]2[C@@H](O)[C@H](O[C@@H]3[C@@H](O)[C@H](NC(=N)N)C[C@H](NC(=N)N)[C@H]3O[C@H]3O[C@H](CNC(=N)N)[C@@H](O)[C@H](O)[C@H]3NC(=N)N)O[C@@H]2CO)[C@H](NC(=N)N)[C@@H](O)[C@@H]1O = 1.5
• CC(=O)N[C@@H](CCCNC(=N)N)C(=O)N[C@@H](CCCNC(=N)N)C(=O)N[C@@H](CCCNC(=N)N)C(=O)N[C@@H](CCCNC(=N)N)C(=O)N[C@@H](CCCNC(=N)N)C(=O)N[C@@H](CCCNC(=N)N)C(=O)O [Ac-RRRRRR-OH] = 0.05
• NC(N)=NCCC[C@H](NC(=O)[C@H](CCCN=C(N)N)NC(=O)[C@H](CCCN=C(N)N)NC(=O)[C@H](CCCN=C(N)N)NC(=O)[C@H](CCCN=C(N)N)NC(=O)[C@@H](N)CCCN=C(N)N)C(=O)O [H-RRRRRR-OH] = 0.06

Okay, next one:
Look up and report Ki, with UniProt:P09958 as system, for "N=C(N)NCCC[C@@H](N)C(=O)N[C@H](CCCNC(=N)N)C(=O)N[C@H](CCCNC(=N)N)C(=O)N[C@H](CCCNC(=N)N)C(=O)N[C@H](CCCNC(=N)N)C(=O)N[C@H](CCCNC(=N)N)C(N)=O"
0.06

Attribution: paper PMC1513218
